Entries and their Minimum Toxic Dose values follow.
tested on: K562 human myeloid cell line; assay: In vitro toxicity in human cells, propidium iodide flow cytometry, minimum toxic concentration; conditions: K562 human myeloid cells, 15 hours at 37° C., propidium iodide
# value in µM; strip the unit string

Please review the entries below; each comes with its answer.
COC(=O)c1cc2cc(OCc3ccccc3)ccc2n1CCCCCCOC(=O)c1cccnc1 500
COC(=O)c1cc2ccccc2n1CCCCCCCCOC(=O)c1cccnc1 200
COC(=O)c1cc2cc(OCc3ccccc3)ccc2n1CCCCCCCCOC(=O)c1cccnc1 100
COC(=O)c1cc2ccccc2n1CCCCCCCOC(=O)c1cccnc1 200
COC(=O)c1cc2ccccc2n1CCCCCCOC(=O)c1cccnc1 200

query: Look up K562 human myeloid cell line data: Minimum Toxic Dose of O=C(O)C=Cc1cn(CCCCCCCCC[n+]2cccc(C(=O)[O-])c2)c2ccccc12 , then report it.
result: 300

query: Write down the reported Minimum Toxic Dose (system: K562 human myeloid cell line) of Fc1cc(F)c2[nH]c(CCCC[n+]3cccc4ccccc43)cc2c1
result: 200

###

system: Staphylococcus epidermitis; assay: Bacterial growth inhibition screen in LB media (absorbance 595 nm), percent inhibition; details: S. epidermitis; concentration screened 10 uM
// No strictly below 40% in % Inhibition; Yes otherwise

Take a look at these entries with their results.
O=C(OCCCCCn1ccc2cc([N+](=O)[O-])ccc21)c1cnc2ccccc2c1 Yes
CCCCc1ccc2[nH]c(CCCCCC[n+]3ccc4ccccc4c3)cc2c1 No
c1ccc(Oc2ccc3[nH]c(CCCCC[n+]4ccccc4)cc3c2)cc1 No
O=C(OCCCCCCCc1cc2cc(C(F)(F)F)ccc2[nH]1)c1ccccc1-c1ccccc1 No
CC(=O)c1ccc2[nH]c(CCCCCCCCOC(=O)c3ccncc3)cc2c1 No

query: Decide: % Inhibition of COc1ccc2c(ccn2CCCCCCCCOC(=O)c2cccc([N+](C)(C)C)c2)c1 >= 40%?
result: Yes

query: Is it the case that CN(C)c1ccc(C(=O)OCCCCCCCCc2cc3cc([N+](=O)[O-])ccc3[nH]2)cc1 has % Inhibition reaching or exceeding 40%?
result: Yes

query: Dear colleague, could you confirm whether O=C(OCCCCn1ccc2cc([N+](=O)[O-])ccc21)c1cnc2ccccc2c1 has % Inhibition at or above 40%?
result: Yes

###

Biological target: bacterial NAD synthetase enzyme (Bacillus subtilis, UniProt P08164)
Sequence (P08164 2-272 limits assumed): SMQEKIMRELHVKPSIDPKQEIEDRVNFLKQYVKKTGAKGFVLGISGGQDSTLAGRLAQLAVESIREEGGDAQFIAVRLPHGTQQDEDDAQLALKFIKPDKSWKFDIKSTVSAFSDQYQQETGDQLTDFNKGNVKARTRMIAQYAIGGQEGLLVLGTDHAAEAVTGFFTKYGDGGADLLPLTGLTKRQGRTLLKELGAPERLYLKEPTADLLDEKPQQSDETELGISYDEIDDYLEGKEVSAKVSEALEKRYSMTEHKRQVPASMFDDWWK
Assay: biochemical
Format: biochemical
Conditions: lead compounds (Table 318A); read-out: IC 50
Observation type: pIC50
In simple prose, pIC50 is minus the logarithm base ten of a concentration in moles per litre.

C[N+](C)(C)c1ccc(CC(=O)OCCCCCCCn2ccc3cc(OCc4ccccc4)ccc32)cc1 4.52

query: Give recorded pIC50. C[n+]1cccc(C(=O)OCCCCn2ccc3cc(OCc4ccccc4)ccc32)c1
result: 4.05

query: Consider the molecule CN(C)c1ccc(CC(=O)OCCCCCCCCCn2ccc3cc([N+](=O)[O-])ccc32)cc1 and give its recorded pIC50.
result: 4.35
